# assay_protocol: yeast display, Sf9 membrane polyspecificity reagent, FACS + sequencing; frameworks hold sequencing errors

polymer_sequence: QVQLVESGGGLVQAGGSLRLSCAASGFIFSRNAMGWYRQAPGKERELVAAISSTGGITYYADSVKGRFSISRDNAKNTVYLQMNSLKPEDTAVYYCAACFYGYARHTWYNYWGQGTQVTVSS
polyreactivity (PSR sort gate): high polyreactivity
//
polymer_sequence: QVQLVESVGGLVQAGGSLRLSCAAYGRIFAWYAMGWYIQAPGKERELVAVITSSDGSTHYADSVKGRFTISRDNAKNTVYLQMNSLKPEDTAVYYCNADSQRPRRSSTYWGQGTQVTVSS
polyreactivity (PSR sort gate): low polyreactivity
//
polymer_sequence: QVQLVESGGGLVQAGGSLRLSCAASGLTFRKYAMGWYRQAPGKERELVATISRNGGSTYFADSVKGRFTISRDNAKNTVYLQMNSLKPEDTAVYYCAADYYTYDYAGYGYWGQGTQVTVSS
polyreactivity (PSR sort gate): high polyreactivity
//
polymer_sequence: QVQLVESVGGLVQAGGSLRLSCAASGRIFGYNDMGWYRQEPGKERELVAVISTSGTITYYADSVKGRFTISRDNAKNTVYLQMNSLKPEDTAVYNCAAGSYSRYLYSLYFDFDYWGQGTQVTVSS
polyreactivity (PSR sort gate): low polyreactivity
//
polymer_sequence: QVQLVESGGGLVQAGGSLRLSCAASGGIFVSYAMGLYRQAPGKERELVARINSVDGTNYADSVKGRFTISRDNAKNTVYLQMNSLKPEDTAVYYCAVRSPVLASDYGYYFLRDYWGQGTQVTVSS
polyreactivity (PSR sort gate): low polyreactivity
